Test system: HSkMC (human skeletal muscle cells)
assay.text: cytotoxicity call (relative viability < 0.9)
conditions: 10 µM
The whole screen tested about 39,000 compounds, of which about 1,500 (3.8%) were called active. The sample as a whole holds a higher share of actives than the screen did.
Please state which outcome applies, choosing from active, inactive

CO/N=[N+](\[O-])NC(C)C : inactive
C[C@@H]1CCCCO[C@H](CN(C)Cc2ccccc2)[C@@H](C)CN([C@@H](C)CO)C(=O)c2cc(NC(=O)Cc3ccccc3)ccc2O1 : inactive
C[C@H](CO)N1C[C@H](C)[C@H](CN(C)C(=O)Nc2ccc(C(F)(F)F)cc2)OCCCC[C@H](C)Oc2ccc(NC(=O)Cc3ccccc3)cc2C1=O : inactive

Q) Test call for this compound, please: Cc1noc(C)c1NC(=O)N(C)C[C@@H]1Oc2ccc(NC(=O)C3CC3)cc2CC(=O)N([C@@H](C)CO)C[C@@H]1C
A) inactive
